Assay Name: Tanguay_ZF_120hpf_PE_legacy: (Legacy) Oregon State University Tanguay Lab 120 Hour Post-fertilization zebrafish Assay for Pericardial Edema (AID 2283640);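 for AC50: potency for increased incidence of pericardial edema versus DMSO baseline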
Inconclusive results are not listed. Activity calls are given as the source filed them. Rule for the calls: active = hit-call score of the fitted dose curve at least 0.9, where 1 is the maximum; inconclusive = response in the unintended direction; inactive = score below 0.9.

{"columns": ["Molecule", "AC50"],
 "data": [
  ["O=C(O)c1ccccc1C(c1ccc(O)cc1)c1ccc(O)cc1", "inactive"],
  ["CCN(CC)CCNc1ccc(CNC=O)c2sc3ccc(OC)cc3c(=O)c12", "inactive"],
  ["CC(=O)NC1(c2cccc(F)c2)CCN(CC[C@@]2(c3ccc(Cl)c(Cl)c3)CN(c3ccccc3)C(=O)CO2)CC1", "inactive"],
  ["CC(O)CO (stereo not drawn)", "inactive"],
  ["Oc1cccc(O)c1", "inactive"],
  ["C[C@@H]1C[C@H]2[C@@H]3CCC4=CC(=O)C=C[C@]4(C)[C@@]3(F)[C@@H](O)C[C@]2(C)[C@@]1(O)C(=O)COP(=O)(O)O", "inactive"],
  ["CC(C)CCCCCCOC(=O)CCCCC(=O)OCCCCCCC(C)C", "inactive"],
  ["O=c1c(-c2ccc(O)cc2)coc2cc(O)ccc12", "inactive"],
  ["CCc1nn(C2CCCCC2)c2cc(C3(C#N)CCC(C(=O)O)CC3)ccc12 (stereo not drawn)", "0.27 µM (active)"],
  ["NC(=O)N1C(=O)C(C(=O)c2cc(Cl)cs2)c2cc(F)c(Cl)cc21 (stereo not drawn)", "inactive"],
  ["OCCC(F)(F)C(F)(F)C(F)(F)C(F)(F)C(F)(F)C(F)(F)F", "inactive"],
  ["CCc1ccc(CCOc2ccc(CC3SC(=O)NC3=O)cc2)nc1 (stereo not drawn)", "inactive"],
  ["CCCOc1sc(C(=O)N2CCC(c3cc(CN)ccc3F)CC2)c(C)c1Br", "inactive"],
  ["CN1CCC[C@H]1c1cccnc1", "inactive"],
  ["Cc1cc(CCN2CCN(c3nsc4ccccc34)CC2)cc2c1NC(=O)CC2(C)C", "2.96 µM (active)"],
  ["Oc1cc2ccccc2c2ccccc12", "31.9 µM (active)"],
  ["c1ccc2cc3c(ccc4ccccc43)cc2c1", "33.4 µM (active)"],
  ["CCCCCCCCCCCCCCCS(=O)(=O)Oc1ccccc1", "inactive"],
  ["CCCCCCCC(=O)O", "inactive"],
  ["CC(C)(C)c1cccc(C(C)(C)C)c1O", "inactive"],
  ["CC#C[C@]1(O)CC[C@H]2[C@@H]3CCC4=CC(=O)CCC4=C3[C@@H](c3ccc(N(C)C)cc3)C[C@@]21C", "73.3 µM (active)"],
  ["CC[C@H](C)[C@@H](C(=O)O)n1sc2ccccc2c1=O", "inactive"],
  ["CCCCC(CC)COC(=O)CCCCC(=O)OCc1ccccc1 (stereo not drawn)", "inactive"],
  ["CN1CCN(c2ccccc2/C=C2\\SCCN(c3ccc(Cl)c(Cl)c3)C2=O)CC1", "inactive"],
  ["Nc1cccc2c(N)cccc12", "inactive"],
  ["COC(=O)CCCCC(=O)OC", "inactive"],
  ["COCC(C)O (stereo not drawn)", "inactive"],
  ["CC(C)(C)c1ccc(O)c(C(C)(C)C)c1", "inactive"]
]}

These data points were gathered from PubChem BioAssay (EPA / NIEHS).
